Where do the numbers come from? From patent US20100068181A1.

Target: KSP (Homo sapiens, UniProt P52732)
Sequence (P52732 whole entry): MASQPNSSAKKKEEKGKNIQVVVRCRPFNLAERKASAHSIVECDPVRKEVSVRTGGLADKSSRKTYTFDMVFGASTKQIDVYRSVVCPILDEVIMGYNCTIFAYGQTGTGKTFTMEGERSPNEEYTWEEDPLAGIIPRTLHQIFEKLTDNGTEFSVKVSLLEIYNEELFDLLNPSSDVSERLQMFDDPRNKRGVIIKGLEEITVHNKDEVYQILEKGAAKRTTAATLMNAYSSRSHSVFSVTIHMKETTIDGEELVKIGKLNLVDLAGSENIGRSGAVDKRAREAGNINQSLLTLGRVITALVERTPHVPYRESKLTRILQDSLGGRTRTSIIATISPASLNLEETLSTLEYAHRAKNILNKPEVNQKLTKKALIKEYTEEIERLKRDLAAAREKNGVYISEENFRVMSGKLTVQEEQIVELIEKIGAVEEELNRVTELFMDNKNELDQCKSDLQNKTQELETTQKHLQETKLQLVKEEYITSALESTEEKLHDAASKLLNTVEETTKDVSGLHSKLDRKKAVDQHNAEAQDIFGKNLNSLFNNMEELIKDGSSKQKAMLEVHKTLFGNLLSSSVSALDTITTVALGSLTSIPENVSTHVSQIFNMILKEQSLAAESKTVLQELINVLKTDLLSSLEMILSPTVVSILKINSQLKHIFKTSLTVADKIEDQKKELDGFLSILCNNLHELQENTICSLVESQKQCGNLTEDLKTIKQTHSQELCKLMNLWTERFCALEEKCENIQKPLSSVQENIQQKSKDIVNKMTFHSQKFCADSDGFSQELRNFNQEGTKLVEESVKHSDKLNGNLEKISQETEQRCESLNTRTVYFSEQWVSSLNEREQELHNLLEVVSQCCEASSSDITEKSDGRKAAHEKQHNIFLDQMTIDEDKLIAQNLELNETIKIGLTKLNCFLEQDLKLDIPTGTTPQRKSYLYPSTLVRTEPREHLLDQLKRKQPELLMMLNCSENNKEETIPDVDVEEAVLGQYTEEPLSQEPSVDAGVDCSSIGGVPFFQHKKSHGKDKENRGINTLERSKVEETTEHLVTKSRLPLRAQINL
Assay: KSP inhibitory activity, end-point assay
Assay type: biochemical
Conditions: numerical IC50 values for representative compounds; read-out: IC50
Task for the reader: assign each of the following molecules its reported IC50.
Report the figure along with its unit, number first.

Data request, read-out IC50, for CNC(=O)c1cc2nc3c(cc2[nH]1)C[C@H](C(C)(C)C)CC3 (single isomer, unassigned) [Example 22A] 20 nM

Looking for the measured IC50 of CC(C)(C)C1CCc2nc3cc(CO)[nH]c3cc2C1 (centres unmarked) , can you help? 40 nM

Name the recorded IC50 for CC(C)(C)C1CCc2nc3cc(C(N)=O)[nH]c3cc2C1 (centres unmarked) . 30 nM

// query IC50 value for entry CNC(=O)c1cc2nc3c(cc2[nH]1)CC(C(C)(C)C)CC3 (centres unmarked) 50 nM

Request the reported IC50 associated with CC(C)(C)[C@@H]1CCc2nc3cc(C(N)=O)[nH]c3cc2C1 (single isomer, unassigned) [Example 21A] 30 nM

* * *

Target: KSP (Homo sapiens, UniProt P52732)
Assay: KSP inhibitory activity, end-point assay
Assay type: biochemical
Details: KSP inhibitory activity based on end-point assay; read-out: IC50 Rating
Can you tell me IC50 for the items I'm about to list?

Fill in the blank: the reported IC50 of CC(C)(C)OC(=O)NCCCc1c(C(N)=O)[nH]c2cc3c(nc12)CCC(C(C)(C)C)C3 (stereo not drawn) [Example 52] is ____. > 10000 nM

What measured IC50 goes with CC(C)(C)C1CCc2nc3cc(/C=N/NC(N)=S)[nH]c3cc2C1 (stereo not drawn) [Example 43] ? > 10000 nM

Requested field: IC50. Item: CC(C)(C)[C@H]1CCc2nc3cc(C(N)=O)[nH]c3cc2C1 (single isomer, unassigned) [Example 21B] 100 to 1000 nM

Form field: reported IC50 of CC(C)(C)C1CCc2nc3cc(C(=O)Nc4nnn[nH]4)[nH]c3cc2C1 (stereo not drawn) [Example 96] 100 to 1000 nM

Tell me the measured IC50 of CC(C)(C)C1CCc2nc3cc(C(=O)NNc4ccccc4)[nH]c3cc2C1 (stereo not drawn) [Example 95] , please. > 10000 nM

Report IC50 for CCOC(=O)c1cc2nc3c(cc2[nH]1)CC(C(C)(C)C)CC3 (stereo not drawn) [Example 1] please. 1000 to 10000 nM

Dear colleague, I am looking for the recorded IC50 of the following compound: CC(C)(C)C1CCc2nc3c(N)c(C(N)=O)[nH]c3cc2C1 (stereo not drawn) [Example 27] 100 to 1000 nM

Look up IC50: CC(C)(C)C1CCc2nc3cc(C(=O)Nc4ccncc4)[nH]c3cc2C1 (stereo not drawn) [Example 97] 100 to 1000 nM

Data request, read-out IC50, for CCc1c(C(=O)NCCN)[nH]c2cc3c(nc12)CCC(C(C)(C)C)C3 (stereo not drawn) [Example 60] 100 to 1000 nM

I have this compound here, CC(C)(C)C1CCc2nc3cc(C(=O)NCc4ccc5c(c4)OCO5)[nH]c3cc2C1 (stereo not drawn) [Example 90] , and I need its recorded IC50. > 10000 nM

Query: IC50; subject: CC(=NO)c1cc2nc3c(cc2[nH]1)CC(C(C)(C)C)CC3 (stereo not drawn) [Example 31] > 10000 nM

Find the recorded IC50 belonging to CC(C)(C)C1CCc2nc3c(-c4cccc(OC(F)(F)F)c4)c(C(N)=O)[nH]c3cc2C1 (stereo not drawn) [Example 117] and report it. > 10000 nM

Fill in the blank: the reported IC50 of CC(C)(C)C1CCc2nc3cc(C(=O)N[C@@H](CO)c4ccccc4)[nH]c3cc2C1 (stereo partly drawn) [Example 107] is ____. > 10000 nM

Requested field: IC50. Item: CC(C)(C)C1CCc2nc3cc(C(=O)Nc4ccc(N)nc4)[nH]c3cc2C1 (stereo not drawn) [Example 104] 100 to 1000 nM

Report IC50 for CC(C)(C)C1CCc2nc3cc(C(=O)NCCCCCN)[nH]c3cc2C1 (stereo not drawn) [Example 10] please. 100 to 1000 nM

Which IC50 is reported for this compound? CCOCc1cc2nc3c(cc2[nH]1)CC(C(C)(C)C)CC3 (stereo not drawn) [Example 88] 100 to 1000 nM

Entry CC(C)(C)C1CCc2nc3c(CCCO)c(C(N)=O)[nH]c3cc2C1 (stereo not drawn) [Example 50] : reported IC50 = ? 100 to 1000 nM

Given the entry CC(C)(C)C1CCc2nc3cc(CC#N)[nH]c3cc2C1 (stereo not drawn) [Example 33] , report its measured IC50. 1000 to 10000 nM

* * *

Biological target: KSP (Homo sapiens)
Experiment: KSP inhibitory activity, end-point assay
Assay type: biochemical
Details: KSP inhibitory activity based on end-point assay; read-out: IC50 Rating
measuredQuantity: IC50

Query the reported IC50 for KSP (Homo sapiens); item: CC(C)(C)C1CCc2nc3c(C(=O)NCCO)c[nH]c3cc2C1 (stereo not shown) 1 to 10 µM

Checklist item: IC50 tested on KSP (Homo sapiens), entry CC(C)(C)C1CCc2nc3c(C(N)=O)c[nH]c3cc2C1 (stereo not shown) , value? 0.1 to 1 µM

# value lookup — system KSP (Homo sapiens), readout IC50, item CC(C)(C)C1CCc2nc3c(-c4cccc(S(C)(=O)=O)c4)c(C(N)=O)[nH]c3cc2C1 (stereo not shown) 0.1 to 1 µM

Form field - read-out: IC50; system: KSP (Homo sapiens); submitted item: CCOC(=O)c1[nH]c2cc3c(nc2c1/C=C/C(=O)OC)CCC(C(C)(C)C)C3 (stereo not shown) > 10 µM

Find IC50 (KSP (Homo sapiens)) for the entry COc1ccc(OC)c(-c2c(C(N)=O)[nH]c3cc4c(nc23)CCC(C(C)(C)C)C4)c1 (stereo not shown) > 10 µM

Provide value of IC50 for this record tested with KSP (Homo sapiens): CC(C)(C)C1CCc2nc3cc(C(=O)NCc4cccnc4)[nH]c3cc2C1 (stereo not shown) > 10 µM

What measured IC50 is associated with CC(C)(C)C1CCc2nc3cc(C(=O)NCCCCCO)[nH]c3cc2C1 (stereo not shown) on KSP (Homo sapiens)? 1 to 10 µM

Form: Entry = CC(=O)NC(Cc1c(C(N)=O)[nH]c2cc3c(nc12)CCC(C(C)(C)C)C3)C(N)=O (stereo not shown) | System = KSP (Homo sapiens) | IC50 = ____ > 10 µM

Quick check: IC50 on KSP (Homo sapiens), item CC(C)(C)C1CCc2nc3cc(CN)[nH]c3cc2C1 (stereo not shown) ? 0.1 to 1 µM

Given the entry CC(C)(C)C1CCc2nc3c(C(=O)NCc4cccnc4)c[nH]c3cc2C1 (stereo not shown) , what IC50 was observed with KSP (Homo sapiens)? > 10 µM

Entry CC(C)(C)C1CCc2nc3cc(C(=O)NCCCO)[nH]c3cc2C1 (stereo not shown) , system KSP (Homo sapiens): what IC50 was measured? 0.1 to 1 µM

Item CC(C)(C)C1CCc2nc3cc(C(=O)NCCCCCCN)[nH]c3cc2C1 (stereo not shown) with KSP (Homo sapiens) - IC50? 0.1 to 1 µM

Give KSP (Homo sapiens) IC50 for CC(C)(C)C1CCc2nc3c(C(=O)NCCCO)c[nH]c3cc2C1 (stereo not shown) 1 to 10 µM

Requested read-out IC50, target or system KSP (Homo sapiens), entry CC(C)(C)C1CCc2nc3cc(C(=O)NCCN)[nH]c3cc2C1 (stereo not shown) 0.1 to 1 µM

Notebook: pull reported IC50 for KSP (Homo sapiens), entry CC(C)(C)C1CCc2nc3c(NCCO)c(C(N)=O)[nH]c3cc2C1 (stereo not shown) 1 to 10 µM

Form: Entry = CN1CCN(C(=O)c2cc3nc4c(cc3[nH]2)CC(C(C)(C)C)CC4)CC1 (stereo not shown) | System = KSP (Homo sapiens) | IC50 = ____ > 10 µM

Missing value: IC50, KSP (Homo sapiens), entry CCOC(=O)c1c(Cl)[nH]c2cc3c(nc12)CCC(C(C)(C)C)C3 (stereo not shown) . Fill in? > 10 µM

Write down the reported IC50 of CC(C)(C)C1CCc2nc3cc(C(=O)Nc4ccc(O)cc4)[nH]c3cc2C1 (stereo not shown) , test system: KSP (Homo sapiens). 0.1 to 1 µM

Checklist item: IC50 tested on KSP (Homo sapiens), entry CC(C)OCc1cc2nc3c(cc2[nH]1)CC(C(C)(C)C)CC3 (stereo not shown) , value? > 10 µM

State its IC50 on KSP (Homo sapiens): Cc1c(C(N)=O)[nH]c2cc3c(nc12)CCC(C(C)(C)C)C3 (stereo not shown) > 10 µM

Write down the reported IC50 of CC(C)(C)C1CCc2nc3c(-c4cccc(N)c4)c(C(N)=O)[nH]c3cc2C1 (stereo not shown) , test system: KSP (Homo sapiens). > 10 µM

What value of IC50 on KSP (Homo sapiens) does CCOC(=O)c1[nH]c2cc3c(nc2c1Br)CCC(C(C)(C)C)C3 (stereo not shown) have? > 10 µM

Record lookup: for KSP (Homo sapiens), what IC50 belongs to CCOC(=O)c1[nH]c2cc3c(nc2c1CCCN)CCC(C(C)(C)C)C3 (stereo not shown) ? > 10 µM

Report IC50 for CC(C)(C)C1CCc2nc3cc(C(=O)NCCc4ccc(O)cc4)[nH]c3cc2C1 (stereo not shown) tested on KSP (Homo sapiens). > 10 µM

For the record CCC(O)c1cc2nc3c(cc2[nH]1)CC(C(C)(C)C)CC3 (stereo not shown) , what value of IC50 is listed for KSP (Homo sapiens)? 0.1 to 1 µM

What IC50 appears in the records for this compound with KSP (Homo sapiens)? CC(C)(C)C1CCc2nc3cc(C(=O)NCCO)[nH]c3cc2C1 (stereo not shown) 0.1 to 1 µM

Identify the measured IC50 of CNC(=O)c1cc2nc3c(cc2[nH]1)CC(C(C)(C)C)CC3 (stereo not shown) for KSP (Homo sapiens). < 0.1 µM

Lab request: please report IC50 under test system KSP (Homo sapiens) for CCOC(=O)c1[nH]c2cc3c(nc2c1C)CCC(C(C)(C)C)C3 (stereo not shown) > 10 µM

Recorded IC50 for CC(=O)Nc1c[nH]c2cc3c(nc12)CCC(C(C)(C)C)C3 (stereo not shown) with KSP (Homo sapiens), please? 1 to 10 µM

Query for KSP (Homo sapiens): what IC50 does the record show for CC(C)(C)C1CCc2nc3cc(C(=O)NCCN4CCNCC4)[nH]c3cc2C1 (stereo not shown) ? 1 to 10 µM

Return IC50 measured with KSP (Homo sapiens) given this compound: CC(C)(C)C1CCc2nc3cc(C(=O)N[C@H](CN)c4ccccc4)[nH]c3cc2C1 (stereo partly shown) 0.1 to 1 µM

Short answer please: IC50, KSP (Homo sapiens), entry CC(C)(C)C1CCc2nc3c(C#CCCCO)c(C(N)=O)[nH]c3cc2C1 (stereo not shown) > 10 µM

Which IC50 is reported with KSP (Homo sapiens) for this entry: CC(C)(C)C1CCc2nc3c(NC(=O)CO)c(C(N)=O)[nH]c3cc2C1 (stereo not shown) ? 1 to 10 µM

Form field - read-out: IC50; system: KSP (Homo sapiens); submitted item: CCOC(=O)c1[nH]c2cc3c(nc2c1NC(=O)COC(C)=O)CCC(C(C)(C)C)C3 (stereo not shown) > 10 µM
